# System: Bombyx mori
# procedureText: Insecticidal activity against Bombyx mori Syogetsu x Syunrei third-instar larvae assessed as insect mortality upon topical application at 3 ug measured 48 hr post compound treatment
# Type: functional
Measured mortality by item
measuredParameter: mortality (%)

{"columns": ["inputSmiles", "studyTarget", "measuredParameter", "valueObserved"],
 "data": [
  ["CCCCCc1nc2ccccc2c(OC(C)=O)c1C", "Bombyx mori", "mortality", 40],
  ["CCCc1nc2ccccc2c(OC(C)=O)c1C", "Bombyx mori", "mortality", 0],
  ["CC(=O)Oc1c(C)c(C)nc2ccc(F)cc12", "Bombyx mori", "mortality", 100],
  ["CCCCc1nc2ccccc2c(OC(C)=O)c1C", "Bombyx mori", "mortality", 35],
  ["CC(=O)Oc1c(C)c(C)nc2ccccc12", "Bombyx mori", "mortality", 71],
  ["CCCCCCC/C=C\\c1nc2ccc(F)cc2c(OC(C)=O)c1C", "Bombyx mori", "mortality", 100],
  ["CCCCCCCc1nc2ccccc2c(OC(C)=O)c1C", "Bombyx mori", "mortality", 100],
  ["CCCCCCC/C=C/c1nc2ccccc2c(OC(C)=O)c1C", "Bombyx mori", "mortality", 100],
  ["CCCCCCc1nc2ccccc2c(OC(C)=O)c1C", "Bombyx mori", "mortality", 100],
  ["CCc1nc2ccccc2c(OC(C)=O)c1C", "Bombyx mori", "mortality", 100],
  ["CCCCCCCCCc1nc2ccccc2c(OC(C)=O)c1C", "Bombyx mori", "mortality", 100],
  ["CCCCCCc1nc2ccc(F)cc2c(OC(C)=O)c1C", "Bombyx mori", "mortality", 60]
]}

* * *

# System: Bombyx mori
# procedureText: Insecticidal activity against Bombyx mori Syogetsu x Syunrei third-instar larvae assessed as insect mortality upon topical application at 0.3 ug measured 48 hr post compound treatment
# Format: functional

{"columns": ["inputSmiles", "studyTarget", "uom", "mortality"],
 "data": [
  ["CCc1nc2ccc(F)cc2c(OC(C)=O)c1C", "Bombyx mori", "%", 70],
  ["CCCCCCCc1nc2ccccc2c(OC(C)=O)c1C", "Bombyx mori", "%", 0],
  ["CCc1nc2ccccc2c(OC(C)=O)c1C", "Bombyx mori", "%", 0],
  ["CCCCCCC/C=C/c1nc2ccccc2c(OC(C)=O)c1C", "Bombyx mori", "%", 70],
  ["CCCCCCC/C=C\\c1nc2ccc(F)cc2c(OC(C)=O)c1C", "Bombyx mori", "%", 0],
  ["CC(=O)Oc1c(C)c(C)nc2ccc(F)cc12", "Bombyx mori", "%", 0]
]}
